Where do the numbers come from? From the supplement of paper PMC10724198.

- System: Saccharomyces cerevisiae
- test.summary: protein stability index of tFT-peptide fusion (C-terminal peptide) (PSI (0-1 scale)); higher = more stable (slower turnover)
- condition.set: genetic background: wild type; temperature: 30 C
readout: protein stability index

INSERT INTO assay_data (sequence_input, readout, endpoint_result) VALUES
  ('GPGPRAASADCP', 'protein stability index', 0.728),
  ('RGGGRGGSRTGA', 'protein stability index', 0.712),
  ('GSSPLLFSLLES', 'protein stability index', 0.751),
  ('CVQGDGLSFYVL', 'protein stability index', 0.737),
  ('SLAFGPTAFLPT', 'protein stability index', 0.682),
  ('WAGGANGEWGEW', 'protein stability index', 0.81),
  ('WAIMGLIIFCLF', 'protein stability index', 0.329),
  ('GTDSFQTTRRLI', 'protein stability index', 0.663),
  ('RGPARFYVRVSV', 'protein stability index', 0.498),
  ('VFFSCVRFCLWF', 'protein stability index', 0.562);

* * *

- Test system: Saccharomyces cerevisiae
- test.summary: protein stability index of tFT-peptide fusion (C-terminal peptide) (PSI (0-1 scale)); higher = more stable (slower turnover)
- condition.set: genetic background: wild type; temperature: 30 C
just bin them by protein stability index: bottom bin (below 0.6), middle bin (0.6 to below 0.7), top bin (0.7 or more)

INSERT INTO measurements (sequence_input, label_class) VALUES
  ('QRGCEAKRGGEG', 'middle bin'),
  ('SCPRASSSSLTA', 'middle bin'),
  ('VRAWIGDVENGV', 'bottom bin'),
  ('RLPFPVVLFLLF', 'bottom bin'),
  ('PLLPLLPSPASP', 'middle bin'),
  ('TPLLRRHSFSRN', 'top bin'),
  ('VASTSLPDIRGV', 'middle bin'),
  ('KRRKREEKKSMT', 'top bin'),
  ('ELLSCGCCMVQS', 'bottom bin'),
  ('TLSYSPPCSPRH', 'top bin');

* * *

- Tested on: Saccharomyces cerevisiae
- test.summary: protein stability index of tFT-peptide fusion (C-terminal peptide) (PSI (0-1 scale)); higher = more stable (slower turnover)
- condition.set: genetic background: das1 deletion; temperature: 37 C
Output rule met for protein stability index not less than 0.7; output rule not met otherwise.

INSERT INTO results (sequence_input, label_class) VALUES
  ('AVPTSPYSLIVY', 'rule not met'),
  ('SSGAVGLVIVVC', 'rule not met'),
  ('KNGNVEILIKCT', 'rule not met'),
  ('WGRFFWGCGVWV', 'rule met'),
  ('DAIVLGSVVVCR', 'rule not met'),
  ('PCVLAIYVWIRS', 'rule not met'),
  ('TYYPLNRSRFIG', 'rule met'),
  ('SSVFLGWLIVCY', 'rule not met'),
  ('GRPYHLCLFSCF', 'rule met'),
  ('LFLEVCFFRLYF', 'rule not met'),
  ('SRFFSCCVFPSF', 'rule met'),
  ('GELVLVMYGIWV', 'rule not met'),
  ('TPYIFVLACLHV', 'rule not met'),
  ('MWRWASKCRFSM', 'rule met'),
  ('GRSVGVTMFKNG', 'rule met'),
  ('LLLLRCLWISHA', 'rule not met'),
  ('WLCLFRFLGVAY', 'rule not met'),
  ('EGGLGDRLLGVG', 'rule not met');

* * *

- Test system: Saccharomyces cerevisiae
- test.summary: protein stability index of tFT-peptide fusion (C-terminal peptide) (PSI (0-1 scale)); higher = more stable (slower turnover)
- condition.set: genetic background: wild type; temperature: 30 C
Output true for protein stability index not less than 0.7; output false otherwise.

INSERT INTO assay_data (sequence_input, label_class) VALUES
  ('SAFLSFLRLVFL', 'false'),
  ('GAVLSYIAPTPL', 'true'),
  ('KIIKERIRRIKI', 'false'),
  ('CCLGVIASFIVW', 'false'),
  ('LYYSEKRIKNVN', 'false'),
  ('PALQHTVPPPPQ', 'false'),
  ('GCAGRHRWVGEW', 'false'),
  ('PLSPLAPPPAPS', 'false'),
  ('CRQCKGTDGDDQ', 'false'),
  ('LFYRTLPLPWPA', 'true'),
  ('WRQRVWRGGWKG', 'false'),
  ('PPFSPSPPHVCP', 'false'),
  ('TPKAMHPNPNTL', 'false'),
  ('VGGGGGAEGAGW', 'true'),
  ('PSPMHPSAHFST', 'false'),
  ('PLGGPYNSHMFT', 'true');

* * *

- Tested on: Saccharomyces cerevisiae
- test.summary: protein stability index of tFT-peptide fusion in wild type (PSI (0-1 scale)); higher = more stable (slower turnover)
- condition.set: genetic background: wild type
readout: protein stability index

INSERT INTO assay_data (sequence_input, readout, endpoint_result) VALUES
  ('RVTRLDAMYFRI', 'protein stability index', 0.549),
  ('VRGAVGGWQLVG', 'protein stability index', 0.28),
  ('RVHRLDAIYFRI', 'protein stability index', 0.438),
  ('RSLRVLLPLFFR', 'protein stability index', 0.38),
  ('GLYMCSVGCWFRR', 'protein stability index', 0.347),
  ('GDKRNHLIKLLN', 'protein stability index', 0.158),
  ('KKHCKGQKQKIN', 'protein stability index', 0.13),
  ('LKILRQKMNHQNE', 'protein stability index', 0.652),
  ('ARWRVGLWRGASV', 'protein stability index', 0.675),
  ('ARWRVGLDRGAS', 'protein stability index', 0.665),
  ('PDKRNHLIKLLQ', 'protein stability index', 0.205),
  ('FSMAWTFRYWVN', 'protein stability index', 0.0458),
  ('VRGAVGGWRLVGC', 'protein stability index', 0.638),
  ('LKILRSKMNHQN', 'protein stability index', 0.208),
  ('LVVYLSCVWCIN', 'protein stability index', 0.0553),
  ('GLYMCSVGRWFR', 'protein stability index', 0.643),
  ('RNTRLDAIYFRI', 'protein stability index', 0.529),
  ('FSMRWTFRYKVN', 'protein stability index', 0.0899),
  ('RSYRVLLPLYFR', 'protein stability index', 0.217);

* * *

- Test system: Saccharomyces cerevisiae
- test.summary: protein stability index of tFT-peptide fusion (C-terminal peptide) (PSI (0-1 scale)); higher = more stable (slower turnover)
- condition.set: genetic background: cdc53-1; temperature: 37 C
Output y for protein stability index not less than 0.7; output n otherwise.

INSERT INTO measurements (sequence_input, label_class) VALUES
  ('AWWMALAVPIVA', 'n'),
  ('GRSVGVTMFKNG', 'y'),
  ('FLTLQSPIQYIV', 'y'),
  ('FSIFFFLLPSSL', 'n'),
  ('CSRDVFLFIKFL', 'n'),
  ('FFIVGACAYVFA', 'n'),
  ('SFFVCVRVFGCC', 'n'),
  ('SGRATSSRTSEP', 'y'),
  ('VWSSSYVPLGVY', 'n'),
  ('VWVVRGFLGFGG', 'n'),
  ('PIKIYGYLTTVV', 'n'),
  ('LEDVLFVMVINI', 'n'),
  ('VELRNCYLLVKA', 'n'),
  ('GVFRYKLILRKM', 'n'),
  ('PRSFFYIQFVFA', 'n'),
  ('LFLYDFIALRCS', 'n'),
  ('CLRVSFFFWLFA', 'n'),
  ('LSLLCFVASVVA', 'n'),
  ('RDGAHFLLILVC', 'n'),
  ('SVYLYFQVVAYG', 'n'),
  ('WAIMGLIIFCLF', 'n'),
  ('VLCFFWWWCRVC', 'n'),
  ('PVLYSFSLWIHL', 'n'),
  ('LIAGTRRIPLFI', 'n'),
  ('KHKIIGKYQRQI', 'y'),
  ('LWVSHFVILIVS', 'n'),
  ('SGFWVSVDVFFV', 'n'),
  ('RGVPPPPWTPPP', 'y'),
  ('TALSRLFECFLS', 'y'),
  ('FCGLLGVCLVMG', 'n'),
  ('YLVFSLCSYRFL', 'n'),
  ('CFLLSYRWVFLC', 'n'),
  ('IGWGGGTWVKMG', 'y'),
  ('YLAGPLARLRKF', 'y'),
  ('LSVVVLVLCVLL', 'n'),
  ('TVETYNRARKAS', 'n');

* * *

- Tested on: Saccharomyces cerevisiae
- test.summary: protein stability index of tFT-peptide fusion (C-terminal peptide) (PSI (0-1 scale)); higher = more stable (slower turnover)
- condition.set: genetic background: wild type; temperature: 30 C
Output met for protein stability index not less than 0.7; output not met otherwise.

INSERT INTO measurements (sequence_input, tested_system, label_class) VALUES
  ('VLSGAPGLIVYA', 'Saccharomyces cerevisiae', 'not met'),
  ('PPPLPSPLPLPP', 'Saccharomyces cerevisiae', 'not met'),
  ('VCNLIRILSLVI', 'Saccharomyces cerevisiae', 'not met'),
  ('PCPAPPPASSSP', 'Saccharomyces cerevisiae', 'met'),
  ('RKCDKVGCDEKA', 'Saccharomyces cerevisiae', 'not met');
